Cited source: the supplement of paper PMC6992640

Test system: HCI09 (cells of a triple-negative luminal androgen receptor type breast cancer xenograft)
Assay: cell viability (% of vehicle); higher = less cytotoxic;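 further: PDX cells carrying CMV promoter-driven luciferase, viability read as total photon flux per second by IVIS imaging following D-luciferin, vehicle control 0.1% DMSO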
Conditions: 10 µM; 72 h
Where a name gives a salt, the structure may show the parent alone.
endpoint label: cell viability
Could you keep your reply to the number by itself?

CO[C@H]1/C=C/O[C@@]2(C)Oc3c(C)c(O)c4c(O)c(c(/C=N/N5CCN(C6CCCC6)CC5)c(O)c4c3C2=O)NC(=O)/C(C)=C\C=C\[C@H](C)[C@H](O)[C@@H](C)[C@@H](O)[C@@H](C)[C@H](OC(C)=O)[C@@H]1C | 26.9
O=c1c(-n2ccnn2)c[nH]n1-c1cc(N2CCOCC2)ncn1 | 27.2
Cc1cc(-n2c(=O)[nH]c(=O)n(C)c2=O)ccc1Oc1ccc(SC(F)(F)F)cc1 | 61.9
CCN(CC)CCOC(=O)C(c1ccccc1)c1ccccc1.Cl [Adiphenine HCl] | 99.2
CCCc1nn(C)c2c(=O)nc(-c3cc(S(=O)(=O)N4CCN(C)CC4)ccc3OCC)[nH]c12 | 82.8
COc1cc(C=CC(=O)N2CCN(CC(=O)N3CCCC3)CC2)cc(OC)c1OC.O=C(O)C=CC(=O)O [Cinepazide maleate] | 94.4

Request: Item CCC(=O)OCC(=O)C1(OC(=O)CC)C(C)CC2C3CCC4=CC(=O)C=CC4(C)C3(Cl)C(O)CC21C (stereo not given) [Beclomethasone dipropionate] has what recorded cell viability?
Response: 144

Request: Also, O=NN(CCCl)C(=O)NC1CCCCC1 please.
Response: 93.2

Request: Next: OC(CCCN1CCCCC1)(c1ccccc1)c1ccccc1 [Diphenidol HCl]
Response: 107

Request: Also, CCCCCCCCCCCCCCCC(=O)OCC=C(C)C=CC=C(C)C=CC1=C(C)CCCC1(C)C [Retinyl (Vitamin A) Palmitate] please.
Response: 88.4

Request: Can you handle CCCNC(C)C(=O)Nc1ccccc1C (stereo not given) next?
Response: 102

Request: CCOC(=O)OC1(C(=O)OCCl)CCC2C3CCC4=CC(=O)C=CC4(C)C3C(O)CC21C (stereo not given) [Loteprednol etabonate] ?
Response: 150

Request: Then this compound: Nc1ccccc1NC(=O)c1ccc(CNc2nccc(-c3cccnc3)n2)cc1
Response: 78.4

Request: Proceed to CC1CC2C(C(O)CC3(C)C2CCC3(O)C(=O)CO)C2(C)C=CC(=O)C=C12 (stereo not given)
Response: 123

Request: Then what about the compound O=c1[nH]c(=O)n(C2CC(O)C(CO)O2)cc1C(F)(F)F (stereo not given) ?
Response: 137

###

System: HCI16 (cells of a triple-negative basal-like breast cancer xenograft)
Assay: cell viability (% of vehicle); higher = less cytotoxic
Settings: 10 µM; 72 h
endpoint label: cell viability
In your answer, state the number alone without any accompanying words.

Reference set (8 entries):
CN1CCCC[C@H]1CCN1c2ccccc2Sc2ccc(S(C)=O)cc21.O=S(=O)(O)c1ccccc1 (stereo not given in full) [Mesoridazine Besylate] | 106
Cc1ccc(F)c(NC(=O)Nc2ccc(-c3cccc4[nH]nc(N)c34)cc2)c1 [Linifanib (ABT-869)] | 120
Cl.Cl.Fc1ccc(C(c2ccc(F)cc2)N2CCN(CC=Cc3ccccc3)CC2)cc1 [Flunarizine 2HCl] | 106
Cl.Cl.OCCOCCN1CCN(C(c2ccccc2)c2ccc(Cl)cc2)CC1 (stereo not given) [Hydroxyzine 2HCl] | 128
CCCNC(C)C(=O)Nc1c(C)csc1C(=O)OC.Cl (stereo not given) [Articaine HCl] | 133
COCCc1ccc(OCC(O)CNC(C)C)cc1.COCCc1ccc(OCC(O)CNC(C)C)cc1.O=C(O)C(O)C(O)C(=O)O (stereo not given) [Metoprolol Tartrate] | 112
Nc1c(CC(=O)[O-])cccc1C(=O)c1ccccc1.O.[Na+] [Amfenac Sodium Monohydrate] | 104
CCC1OC(=O)C(C)C(OC2CC(C)(OC)C(O)C(C)O2)C(C)C(OC2OC(C)CC(N(C)C)C2O)C(C)(OC)CC(C)C(=O)C(C)C(O)C1(C)O (stereo not given) [Clarithromycin] | 96.6

Request: Look up cell viability: CC(C)=CCCC(C)=CCCC(C)=CCSc1ccccc1C(=O)O [Salirasib]
Response: 103

Request: Try the molecule CC(C)(C)C(=O)OCOP(=O)(COCCn1cnc2c(N)ncnc21)OCOC(=O)C(C)(C)C [Adefovir Dipivoxil]
Response: 129

Request: Then what about the molecule Cc1cc(Nc2cc(N3CCN(C)CC3)nc(Sc3ccc(NC(=O)C4CC4)cc3)n2)n[nH]1 [VX-680 (MK-0457,Tozasertib)] ?
Response: 111

Request: Continue with OCC1OC(OC2(CCl)OC(CCl)C(O)C2O)C(O)C(O)C1Cl (stereo not given) [Sucralose]
Response: 140
